Biological target: delF508-CFTR-HRP (Homo sapiens, UniProt P13569, DEL508-508)
Sequence (P13569 with tags, fused parts or gaps DEL508-508): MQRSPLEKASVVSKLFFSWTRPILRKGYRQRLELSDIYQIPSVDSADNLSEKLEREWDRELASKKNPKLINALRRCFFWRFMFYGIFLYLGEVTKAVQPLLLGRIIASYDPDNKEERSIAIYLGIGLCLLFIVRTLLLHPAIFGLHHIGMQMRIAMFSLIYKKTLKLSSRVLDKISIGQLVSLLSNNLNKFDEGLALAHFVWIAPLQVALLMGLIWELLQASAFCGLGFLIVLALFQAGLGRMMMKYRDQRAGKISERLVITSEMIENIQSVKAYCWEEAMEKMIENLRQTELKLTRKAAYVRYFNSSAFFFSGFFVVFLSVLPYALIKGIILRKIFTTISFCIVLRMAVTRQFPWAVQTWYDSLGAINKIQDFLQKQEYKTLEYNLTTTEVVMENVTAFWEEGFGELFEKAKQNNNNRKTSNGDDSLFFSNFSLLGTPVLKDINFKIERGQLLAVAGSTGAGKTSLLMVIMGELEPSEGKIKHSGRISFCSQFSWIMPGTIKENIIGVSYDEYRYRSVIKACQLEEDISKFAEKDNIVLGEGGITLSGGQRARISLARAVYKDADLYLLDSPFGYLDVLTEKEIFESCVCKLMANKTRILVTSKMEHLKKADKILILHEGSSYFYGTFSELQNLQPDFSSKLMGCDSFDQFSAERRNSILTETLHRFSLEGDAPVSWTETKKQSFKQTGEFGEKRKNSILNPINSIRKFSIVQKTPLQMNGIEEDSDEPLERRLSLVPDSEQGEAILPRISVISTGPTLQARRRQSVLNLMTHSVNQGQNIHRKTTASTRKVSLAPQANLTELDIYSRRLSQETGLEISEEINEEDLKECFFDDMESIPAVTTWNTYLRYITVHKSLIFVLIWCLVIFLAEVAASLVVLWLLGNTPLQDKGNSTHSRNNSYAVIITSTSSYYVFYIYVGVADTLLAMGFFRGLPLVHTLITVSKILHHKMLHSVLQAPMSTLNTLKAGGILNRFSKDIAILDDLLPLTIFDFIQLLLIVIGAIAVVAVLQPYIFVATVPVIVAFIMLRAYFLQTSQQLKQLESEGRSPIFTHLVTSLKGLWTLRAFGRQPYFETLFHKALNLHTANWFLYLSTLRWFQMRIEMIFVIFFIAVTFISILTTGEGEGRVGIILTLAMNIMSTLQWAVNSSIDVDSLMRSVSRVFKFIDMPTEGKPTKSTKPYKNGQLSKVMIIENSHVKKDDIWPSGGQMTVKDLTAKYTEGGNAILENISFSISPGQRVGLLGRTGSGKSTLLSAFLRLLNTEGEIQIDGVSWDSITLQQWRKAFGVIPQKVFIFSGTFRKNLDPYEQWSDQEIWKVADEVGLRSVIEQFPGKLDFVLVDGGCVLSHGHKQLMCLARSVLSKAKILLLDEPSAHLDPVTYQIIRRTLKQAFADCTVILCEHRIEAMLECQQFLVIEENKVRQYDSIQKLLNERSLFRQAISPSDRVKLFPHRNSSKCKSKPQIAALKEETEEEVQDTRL
Assay: Measurement of delF508-CFTR-HRP surface expression in CFBE41o- cells (HRP luminescence)
Conditions: mean of at least two replicates
test readout: EC50 (nM)

Worked cases, EC50 given:
May I ask what EC50 has been recorded for CC1(O)CCN(c2cccc(S(=O)(=O)NC(=O)C3(Oc4cc(Cl)ccc4C4CC5(CCC5)C4)CCCC3)n2)C1 (single isomer, unassigned) [Example 7-18-2] ?
1670

If you can, please state the reported EC50 value of Cc1ccc(C2CCCCC2)c(OC2(C(=O)NS(=O)(=O)c3cccc(N(C)CC(C)O)n3)CC2)c1 (stereo not shown) .
2020

Could you share which EC50 value was measured for `CC1(C)CCCN(c2ccc(Cl)cc2OC2(C(=O)NS(=O)(=O)c3cccc(N4CC[C@H](O)C4)n3)CC2)C1` ?
750

I. Cc1cnc(N2CCC(C)(C)CC2)c(OC2(C(=O)NS(=O)(=O)c3cccc(N4CC[C@H](O)C4)n3)CC2)c1
II. C[C@@H](CO)Nc1cccc(S(=O)(=O)NC(=O)C2(Oc3cc(F)ccc3C3CCC(F)(F)CC3)CC2)n1
Which one would you say has the larger EC50 value: I , or II ? API: response body contains the label of the selected item.
II

* * *

Molecular target: delF508-CFTR-HRP (Homo sapiens, UniProt P13569, DEL508-508)
Construct: expressed in transfected cells
Assay: Measurement of delF508-CFTR-HRP surface expression in CFBE41o- cells (HRP luminescence)
Format: cell-based
test readout: DelF508-CFTR-HRP Amax % (%)

Worked examples follow.
What value of DelF508-CFTR-HRP Amax % has been recorded for this entry: Cc1ccc(C2CCCCC2)c(OC2(C(=O)NS(=O)(=O)c3cccc(N4CCC5(CCCC5N)CC4)n3)CC2)c1 (single isomer, unassigned) [Example 2-32-2]
283

Tell me the measured DelF508-CFTR-HRP Amax % of Cc1ccc(C2CCC(F)(F)CC2)c(OC2(C(=O)NS(=O)(=O)c3cccc(N4CCCC(CO)C4)n3)CC2)c1 (single isomer, unassigned) , please.
614

Can you look up the measured DelF508-CFTR-HRP Amax % of Cc1ccc(C2CCC(C)(C)OC2)c(OC2(C(=O)NS(=O)(=O)c3cccc(N4CCC(O)(C(F)(F)F)CC4)n3)CC2)c1 (single isomer, unassigned) [Example 11-2-1] for me?
473.8

A. Cc1ccc(C2CC2C(F)(F)F)c(OC2(C(=O)NS(=O)(=O)c3cccc(N)n3)CC2)c1 (single isomer, unassigned) [Example 1-3-1]
B. Cc1ccc(C2CCCCC2)c(OC2(C(=O)NS(=O)(=O)c3cccc(N4CCC5(CCCC5N)CC4)n3)CC2)c1 (single isomer, unassigned) [Example 2-32-1]
Field: entry with larger DelF508-CFTR-HRP Amax % (options A / B ). Return value: the label identifying the chosen record.
B
(B: 537%, A: 65%)

P. Cc1ccc(C2CCC3(CCC3)OC2)c(OC2(C(=O)NS(=O)(=O)c3cccc(N4CCC(C)(O)CC4)n3)CC2)c1 (single isomer, unassigned) [Example 11-4-1]
Q. Cc1ccc(C2CC2C(F)(F)F)c(OC2(C(=O)NS(=O)(=O)c3cccc(N)n3)CC2)c1 (single isomer, unassigned) [Example 1-3-2]
Which of the two gives a bigger number for DelF508-CFTR-HRP Amax %: P or Q ? Identify your pick by its label.
P
(P: 460.1%, Q: 260%)

1. CC1(O)CCCN(c2cccc(S(=O)(=O)NC(=O)C3(Oc4cc(Cl)ccc4C4CC5(CCC5)C4)CC3)n2)C1 (single isomer, unassigned) [Example 7-8-1]
2. Cc1ccc(C2CCC(C)(C)OC2)c(OC2(C(=O)NS(=O)(=O)c3cccc(N4CCC(O)(C(F)(F)F)CC4)n3)CC2)c1 (single isomer, unassigned) [Example 11-2-2]
Hey, which is lower on measured DelF508-CFTR-HRP Amax %, 1 or 2 ? // return label of chosen record
2
(2: 361.4%, 1: 535.5%)

I. Cc1ccc(C2CCC3(CCCC3)OC2)c(OC2(C(=O)NS(=O)(=O)c3cccc(N4CCC(O)(c5ccc(Cl)cc5)CC4)n3)CC2)c1 (single isomer, unassigned) [Example 11-3-2]
II. Cc1ccc(C2CCC(C)(C)OC2)c(OC2(C(=O)NS(=O)(=O)c3cccc(N4CCC(O)(c5ccc(Cl)cc5)CC4)n3)CC2)c1 (single isomer, unassigned) [Example 11-1-2]
III. Cc1ccc(C2CCC(C)(C)OC2)c(OC2(C(=O)NS(=O)(=O)c3cccc(N4CC[C@H](O)C4)n3)CC2)c1 (single isomer, unassigned) [Example 4-24-1]
Put the items in order so that reported DelF508-CFTR-HRP Amax % rises from first to last. Give the labels in the order specified.
III, I, II

I. CC1(C)CCN(c2ccc(Cl)cc2OC2(C(=O)NS(=O)(=O)c3cccc(N4CCC(C)(O)C4)n3)CC2)CC1 (single isomer, unassigned) [Example 9-39-1]
II. CC1(C)CCN(c2ccc(Cl)cc2OC2(C(=O)NS(=O)(=O)c3cccc(N4CCCC(C)(O)C4)n3)CC2)CC1 (single isomer, unassigned) [Example 9-43-2]
Consider entries I and II . Which has the numerically lower DelF508-CFTR-HRP Amax %? Identify your pick by its label.
II
(II: 367.4%, I: 726.4%)
